For each of the compounds below, state its Plant response rating, Pigweed.
- Test system: pigweed
- experiment: Test B pre-/postemergence herbicide test
- Type: in vivo, Amaranthus retroflexus
- study.conditions: 500 g ai/ha; visual rating, 0 = no effect, 100 = complete control; preemergence

Provide Plant response rating, Pigweed value for the following compound: `CCn1nc(C(C)(C)C)cc1C(=O)Nc1cc(C(=O)N2CCOCC2)ccc1F` 100

Provide Plant response rating, Pigweed value for the following compound: `Cc1nn(C(C)(C)C)cc1C(=O)Nc1cc(C(=O)N(C)C)ccc1F` 90

Provide Plant response rating, Pigweed value for the following compound: CCN1N=C(C(C)(C)C)CC1C(=O)Nc1cc(C(=O)N2CCCCC2)ccc1F (racemic) 50

Provide Plant response rating, Pigweed value for the following compound: `CCc1cn(C(C)(C)C)nc1C(=O)Nc1cccc(C(=O)N(C)C)n1` 0

Provide Plant response rating, Pigweed value for the following compound: `CCc1nn(C(C)(C)C)cc1C(=O)Nc1ccc(F)c(C(=O)N(C)C)c1` 70

Provide Plant response rating, Pigweed value for the following compound: `CCn1nc(C(C)(C)C)cc1C(=O)Nc1cc(C(=O)N2CCCC2)ccc1F` 100

Provide Plant response rating, Pigweed value for the following compound: CCC1=NN(C(C)(C)C)CC1C(=O)Nc1cc(C(=O)N(C)CC)ccc1F (racemic) 100

Provide Plant response rating, Pigweed value for the following compound: CCC1=NN(C(C)(C)C)CC1C(=O)Nc1cc(C(=O)N2CC=CC2)ccc1F (racemic) 100

* * *

For each of the molecules below, state its Plant response rating, Cupgrass, Woolly.
- Tested on: woolly cupgrass
- experiment: Test C pre-/postemergence herbicide test
- Format: in vivo, Eriochloa villosa
- study.conditions: 125 g ai/ha; scale 0 (no effect) to 100 (complete control); visual, 12 to 14 days; preemergence
Just the number, please.

Provide Plant response rating, Cupgrass, Woolly value for the following molecule: `CCN(CC)C(=O)c1cccc(NC(=O)c2cc(C(C)(C)C)nn2CC)n1` 0

Provide Plant response rating, Cupgrass, Woolly value for the following molecule: `CCNC(=O)c1cc(C)nc(NC(=O)c2cc(C(C)(C)C)nn2CC)c1` 5

Provide Plant response rating, Cupgrass, Woolly value for the following molecule: `CCn1nc(C(C)(C)C)cc1C(=O)Nc1cccc(C(C)=NO)c1` 50

Provide Plant response rating, Cupgrass, Woolly value for the following molecule: `CCn1nc(C2(C)CC2)cc1C(=O)Nc1cccc(C(=O)N2CC=CC2)c1` 10

* * *

For each of the compounds below, state its Plant response rating, Soybean.
- Test system: soybean
- experiment: Test C pre-/postemergence herbicide test
- Format: in vivo, Glycine max
- study.conditions: 125 g ai/ha; scale 0 (no effect) to 100 (complete control); visual, 12 to 14 days; preemergence
- Description: […]
Just the number, please.

Provide Plant response rating, Soybean value for the following compound: CCn1nc(C(C)(C)C)cc1C(=O)Nc1cccc(C#N)c1 [Compound 139] 10

Provide Plant response rating, Soybean value for the following compound: CCCCn1nc(C(C)(C)C)cc1C(=O)Nc1cccc(C(=O)NCC)c1 [Compound 41] 0

Provide Plant response rating, Soybean value for the following compound: C=CCNC(=O)c1cccc(NC(=O)c2sc(C(C)(C)C)nc2C)c1 [Compound 202] 0

Provide Plant response rating, Soybean value for the following compound: CCC(=NO)c1cccc(NC(=O)c2cc(C(C)(C)C)nn2C)c1 [Compound 118] 10

Provide Plant response rating, Soybean value for the following compound: CCc1nn(C(C)(C)C)cc1C(=O)Nc1cccc(C(C)=NO)c1 [Compound 188] 0

Provide Plant response rating, Soybean value for the following compound: CC(=NO)c1cccc(NC(=O)c2cc(C(C)(C)C)nn2C)c1 [Compound 102] 0

* * *

- System: velvetleaf
- experiment: Test A pre-/postemergence herbicide test
- Assay type: in vivo, Abutilon theophrasti
- study.conditions: Postemergence, 500 g ai/ha; 0 to 100 scale, 0 no effect, 100 complete control
endpoint: Velvetleaf plant response rating

Provide Velvetleaf plant response rating value for the following molecule: `CCn1nc(C(C)(C)C)cc1C(=O)Nc1cccc(OC(F)(F)F)c1` 100

Provide Velvetleaf plant response rating value for the following molecule: `CCOC(=O)c1ccc(F)c(NC(=O)c2nc(C(C)(C)C)nn2CC)c1` 30

Provide Velvetleaf plant response rating value for the following molecule: `C#CCNC(=O)c1cccc(NC(=O)c2sc(C(C)(C)C)nc2CC)n1` 5

Provide Velvetleaf plant response rating value for the following molecule: `CCNC(=O)c1cccc(NC(=O)c2cn(CC)nc2C(F)(F)F)c1` 5

Provide Velvetleaf plant response rating value for the following molecule: `CCn1nc(C(C)(C)C)cc1C(=O)Nc1cccc(C(=O)OC)c1C` 10

Provide Velvetleaf plant response rating value for the following molecule: `CCn1nc(C(C)(C)C)cc1C(=O)Nc1cccc(C(C)=NO)c1` 90

Provide Velvetleaf plant response rating value for the following molecule: `C=CCNC(=O)c1cccc(NC(=O)c2sc(C(C)(C)C)nc2C)c1` 30

Provide Velvetleaf plant response rating value for the following molecule: `CCn1nc(C(C)(C)C)cc1C(=O)Nc1cccc(C(=O)OCC2CC2)c1C` 10

* * *

For each of the compounds below, state its Crabgrass, Large plant response rating.
- Tested on: large crabgrass
- experiment: Test B pre-/postemergence herbicide test
- Type: in vivo, Digitaria sanguinalis
- study.conditions: postemergence, 125 g ai/ha; visual rating, scale 0 (no effect) to 100 (complete control)
Just the number, please.

Would you please give the reported Crabgrass, Large plant response rating of CCn1nc(C(C)(C)C)cc1C(=O)Nc1cc(C(=O)N2CCOCC2)ccc1F [Compound 243] with large crabgrass? 10

Would you please give the reported Crabgrass, Large plant response rating of C=Cn1nc(C(C)(C)C)cc1C(=O)Nc1cccc(C(=O)OCC)c1 [Compound 78] with large crabgrass? 20

Would you please give the reported Crabgrass, Large plant response rating of CCc1nc(C(C)(C)C)sc1C(=O)Nc1cc(C(=O)N(C)CC)ccc1F [Compound 231] with large crabgrass? 20

Would you please give the reported Crabgrass, Large plant response rating of CCn1nc(C(C)(C)C)cc1C(=O)Nc1ccc(F)c(C(=O)NCCF)c1 [Compound 60] with large crabgrass? 10

Would you please give the reported Crabgrass, Large plant response rating of CCC(=NO)c1cccc(NC(=O)c2cc(C(C)(C)C)nn2C)c1 [Compound 118] with large crabgrass? 20

Would you please give the reported Crabgrass, Large plant response rating of CCNC(=O)c1cc(C)cc(NC(=O)c2cc(C(C)(C)C)nn2CC)n1 [Compound 150] with large crabgrass? 10

Would you please give the reported Crabgrass, Large plant response rating of CCn1nc(C(C)(C)C)cc1C(=O)Nc1cc(C(=O)N2CCCC2)ccc1F [Compound 242] with large crabgrass? 30

Would you please give the reported Crabgrass, Large plant response rating of CCn1nc(C(C)(C)C)cc1C(=O)Nc1cccc(C(=O)N(C)CC#N)n1 [Compound 158] with large crabgrass? 30

Would you please give the reported Crabgrass, Large plant response rating of C=CCNC(=O)c1cccc(NC(=O)c2sc(C(C)(C)C)nc2C)c1 [Compound 202] with large crabgrass? 0

* * *

- System: cocklebur
- experiment: Test C pre-/postemergence herbicide test
- Type: in vivo, Xanthium strumarium
- study.conditions: Preemergence, 500 g ai/ha; scale 0 to 100, 0 no effect, 100 complete control
endpoint: Cocklebur plant response rating

Provide Cocklebur plant response rating value for the following molecule: `CCn1nc(C(C)(C)C)cc1C(=O)Nc1cc(C#N)ccc1F` 0

Provide Cocklebur plant response rating value for the following molecule: `CCn1nc(C(C)(C)C)cc1C(=O)Nc1cccc(C(C)=NO)c1` 50

Provide Cocklebur plant response rating value for the following molecule: `CCNC(=O)c1ccnc(NC(=O)c2cc(C(C)(C)C)nn2CC)c1` 100

Provide Cocklebur plant response rating value for the following molecule: `CCn1nc(C2(C)CC2)cc1C(=O)Nc1cccc(C(=O)N2CC=CC2)c1` 0

Provide Cocklebur plant response rating value for the following molecule: `CCn1nc(C(C)(C)C)cc1C(=O)Nc1cc(C(=O)N2CCCC2)ccc1F` 50

Provide Cocklebur plant response rating value for the following molecule: CCN1N=C(C(C)(C)C)CC1C(=O)Nc1cc(C(=O)N2CCCC2)ccc1F (racemic) 60

* * *

- Test system: cocklebur
- experiment: Test B pre-/postemergence herbicide test
- Type: in vivo, Xanthium strumarium
- study.conditions: postemergence, 500 g ai/ha; visual rating, scale 0 (no effect) to 100 (complete control)
For each of the compounds below, state its Cocklebur plant response rating.

Would you please give the reported Cocklebur plant response rating of Cc1nc(C(C)(C)C)sc1C(=O)Nc1cccc(C(=O)NCCF)c1 [Compound 200] with cocklebur? 20

Would you please give the reported Cocklebur plant response rating of C=CCNC(=O)c1cccc(NC(=O)c2sc(C(C)(C)C)nc2C)c1 [Compound 202] with cocklebur? 40

Would you please give the reported Cocklebur plant response rating of CCn1nc(C(C)(C)C)cc1C(=O)Nc1nc(C(=O)OC)ccc1OC [Compound 265] with cocklebur? 0

Would you please give the reported Cocklebur plant response rating of CCn1nc(C(C)(C)C)cc1C(=O)Nc1nccc(OC)n1 [Compound 165] with cocklebur? 0

Would you please give the reported Cocklebur plant response rating of CCCOC(=O)c1cc(NC(=O)c2cc(C(C)(C)C)nn2CC)c(F)cc1F [Compound 249] with cocklebur? 30

Would you please give the reported Cocklebur plant response rating of CCc1cn(C(C)(C)C)nc1C(=O)Nc1cc(C(=O)N(C)C)ccn1 [Compound 232] with cocklebur? 30

Would you please give the reported Cocklebur plant response rating of CCN(C)C(=O)c1cc(NC(=O)c2cc(C(C)(C)C)nn2CC)c(F)cc1F [Compound 254] with cocklebur? 20

Would you please give the reported Cocklebur plant response rating of CCN(C)C(=O)c1cccc(NC(=O)c2sc(C(C)(C)C)nc2C)c1 [Compound 227] with cocklebur? 30

Would you please give the reported Cocklebur plant response rating of CCn1nc(C(C)(C)C)cc1C(=O)Nc1cccc(S(C)(=O)=O)c1 [Compound 133] with cocklebur? 60
